# Target of assay: T1, extracellular domain of human CD73 protein, C-terminus polyhistidine-tagged (human, UniProt P21589 27-547)
# T1 construct: also the immunogen; also called CD73-ECD; human CD73-ECD
# T1 sequence: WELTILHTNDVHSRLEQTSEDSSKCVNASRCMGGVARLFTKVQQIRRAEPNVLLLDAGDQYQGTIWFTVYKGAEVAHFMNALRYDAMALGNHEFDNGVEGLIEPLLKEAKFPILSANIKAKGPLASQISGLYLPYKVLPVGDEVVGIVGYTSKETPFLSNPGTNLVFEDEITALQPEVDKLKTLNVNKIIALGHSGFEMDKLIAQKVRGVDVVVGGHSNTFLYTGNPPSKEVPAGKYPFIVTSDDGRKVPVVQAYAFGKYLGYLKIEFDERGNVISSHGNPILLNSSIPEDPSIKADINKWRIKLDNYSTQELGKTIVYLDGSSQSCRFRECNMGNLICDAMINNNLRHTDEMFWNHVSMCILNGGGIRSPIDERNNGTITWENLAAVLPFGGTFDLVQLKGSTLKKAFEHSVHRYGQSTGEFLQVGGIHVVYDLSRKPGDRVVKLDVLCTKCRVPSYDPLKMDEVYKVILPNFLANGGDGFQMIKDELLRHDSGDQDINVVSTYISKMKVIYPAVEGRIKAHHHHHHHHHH
# Test details: ELISA on CD73-ECD, 20 µL supernatant of antibody expression, second of two readings; PBS 0.19, 0.18
Assay endpoint: ELISA reading (not named on the sheet)
The answer should be written as a number, with no unit following it.

I have this binder here, 5-E11 derived antibody 5-E11GS (VHH, not shown: a dimerising Fc or GST) VHH: ALQLVESGGGLVQPGGSLRLSCEVSGFTLDYYNIGWFRQAPGKEREGVSCSSGSGGSTYYADSVKGRFTISRDNAKNTVYLQMNSLKPEDTGVYYCAAYRGWHPSLDARVYDYWGQGTEVTVSS , and I need its recorded ELISA reading (not named on the sheet).
4.3

Continue with 5-E11 derived antibody 5-E11QS (VHH, not shown: a dimerising Fc or GST) VHH: ALQLVESGGGLVQPGGSLRLSCEVSGFTLDYYNIGWFRQAPGKEREGVSCSSQSGGSTYYADSVKGRFTISRDNAKNTVYLQMNSLKPEDTGVYYCAAYRGWHPSLDARVYDYWGQGTEVTVSS
4.29

Continue with 5-E11 derived antibody 5-E11AS (VHH, not shown: a dimerising Fc or GST) VHH: ALQLVESGGGLVQPGGSLRLSCEVSGFTLDYYNIGWFRQAPGKEREGVSCSSASGGSTYYADSVKGRFTISRDNAKNTVYLQMNSLKPEDTGVYYCAAYRGWHPSLDARVYDYWGQGTEVTVSS
4.33

Continue with chimeric nanobody 5-E11 (Fc fusion, Human-alpaca chimeric antibody (VHH on hIgG1 Fc); Only the VHH is tied to the tested molecule; also called original antibody 5-E11) VHH: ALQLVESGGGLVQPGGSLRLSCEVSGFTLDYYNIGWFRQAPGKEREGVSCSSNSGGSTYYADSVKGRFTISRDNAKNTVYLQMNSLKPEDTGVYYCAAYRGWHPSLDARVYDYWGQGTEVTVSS
4.32
